- testedOn: T1, human SLITRK6 on cells (human, UniProt Q9H5Y7 27-841)
- T1 construct: whole, on cells
- measurementDescription: flow cytometry on CHP-212 cells
Would you kindly list pEC50 for each of these binders?
Just so you know, pEC50 here is -log10 of the concentration in molar units; reply with that number alone.

Reported pEC50 ( phA290-LD038 (8) (antibody, V domains shown, drug-linker LD038 on cysteines freed by TCEP reduction, DAR 8.0; positions not given, also called phA290 ADC) VH: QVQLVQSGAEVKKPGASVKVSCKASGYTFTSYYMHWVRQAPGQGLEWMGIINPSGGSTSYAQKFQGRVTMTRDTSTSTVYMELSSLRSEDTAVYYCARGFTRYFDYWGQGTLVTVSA VL: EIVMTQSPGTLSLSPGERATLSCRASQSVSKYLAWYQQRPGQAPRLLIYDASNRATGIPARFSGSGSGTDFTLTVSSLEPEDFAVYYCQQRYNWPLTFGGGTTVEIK ) = 9.89

Reported pEC50 ( Sirtratumab (antibody, V domains shown, Prior-art benchmark antibody; also called Sirtratuzumab) VH: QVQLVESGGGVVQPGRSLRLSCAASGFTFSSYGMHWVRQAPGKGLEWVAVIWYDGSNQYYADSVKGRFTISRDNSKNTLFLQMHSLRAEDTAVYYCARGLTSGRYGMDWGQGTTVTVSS VL: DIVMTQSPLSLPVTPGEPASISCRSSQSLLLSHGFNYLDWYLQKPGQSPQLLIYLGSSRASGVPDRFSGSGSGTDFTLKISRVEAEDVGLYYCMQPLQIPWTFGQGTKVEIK ) = 9.60
